molecules and their reported IC50
- STUDY SYSTEM: Recombinant autotaxin (Homo sapiens)
- ASSAY NOTES: Autotaxin assay (Amplex Red, LPC substrate)
- STUDY CONDITIONS: recombinant autotaxin, LPC substrate, Amplex Red detection; values given as upper bounds

Field: example entries. Status: answers known.
STRUCTURE STRING	QUANTITY	RESULT
O=C(OCc1ccc(SC(F)(F)F)cc1)N1CCN(C2CCN(C(=O)c3ccc4[nH]nnc4c3)CC2)CC1	IC50	< 1 µM
CSc1ccc(COC(=O)N2CCN(C3CCN(C(=O)c4ccc5[nH]nnc5c4)CC3)CC2)cc1	IC50	< 10 µM
O=C(OCc1ccc(Cl)c(Cl)c1)N1CCC(N2CCN(C(=O)c3ccc4[nH]nnc4c3)CC2)CC1	IC50	< 1 µM

Challenge: What IC50 value was documented for this molecule, O=C(Nc1ccc(Cl)c(C(F)(F)F)c1)C(=O)N1CCN(C2CCN(C(=O)c3ccc4[nH]nnc4c3)CC2)CC1 ?
Response given: < 10 µM

###

- STUDY SYSTEM: Recombinant autotaxin (Homo sapiens)
- ASSAY NOTES: Autotaxin assay (Amplex Red, LPC substrate)
- STUDY CONDITIONS: recombinant autotaxin, LPC substrate, Amplex Red detection; values given as upper bounds
pIC50: −log10 of the molar value.
Quick list: pIC50 per entry.

Solved cases below.
COMPOUND	QUANTITY	RESULT
Cc1cc(CCC(=O)N2CCN(C3CCN(C(=O)c4ccc5[nH]nnc5c4)CC3)CC2)cc(C)c1F [Compound 106]	pIC50	> 5.00
O=C(Cc1ccc(C(F)(F)F)cc1F)N1CCN(C2CCN(C(=O)c3ccc4[nH]nnc4c3)CC2)CC1 [Compound 103]	pIC50	> 4.52
CC(CC(=O)N1CCN(C2CCN(C(=O)c3ccc4[nH]nnc4c3)CC2)CC1)c1ccc(C(F)(F)F)cc1 (stereo not drawn) [Compound 177]	pIC50	> 5.00
Cc1ccc(C(C)CC(=O)N2CCN(C3CCN(C(=O)c4ccc5[nH]nnc5c4)CC3)CC2)cc1C (stereo not drawn) [Compound 176]	pIC50	> 4.52
O=C(OCc1cc(F)cc(Br)c1)N1CCN(C2CCN(C(=O)c3ccc4[nH]nnc4c3)CC2)CC1 [Compound 154]	pIC50	> 6.00

Next item in the queue.
Challenge: Recorded pIC50 for O=C(OCc1ccc(Cl)c(OC(F)(F)F)c1)N1CCN(C2CCN(C(=O)c3ccc4[nH]nnc4c3)CC2)CC1 [Compound 145] , please?
Response given: > 5.00

###

- STUDY SYSTEM: Recombinant autotaxin (Homo sapiens)
- ASSAY NOTES: Autotaxin assay (Amplex Red, LPC substrate)
- STUDY CONDITIONS: recombinant autotaxin, LPC substrate, Amplex Red detection; values given as upper bounds
pIC50: −log10 of the molar value.
QUANTITY: pIC50

COMPOUND	QUANTITY	RESULT
O=C(Cc1ccc(Cl)cc1)N1CCC(C2CCN(C(=O)c3ccc4[nH]nnc4c3)CC2)CC1 [Compound 23]	pIC50	> 4.52
O=C(OCc1cc(F)cc(Cl)c1)N1CCN(C2CCN(C(=O)c3ccc4[nH]nnc4c3)CC2)CC1 [Compound 152]	pIC50	> 6.00
O=C(OCc1ccc(F)c(Cl)c1)N1CCC(N2CCN(C(=O)c3ccc4[nH]nnc4c3)CC2)CC1 [Compound 78]	pIC50	> 6.00
O=C(CCc1ccc(C(F)(F)F)cc1)N1CCC(C2CCN(C(=O)c3ccc4[nH]nnc4c3)CC2)CC1 [Compound 22]	pIC50	> 6.00
O=C(OCc1cc(Cl)cc(Cl)c1)N1CCC(C2CCN(C(=O)c3ccc4[nH]nnc4c3)CC2)CC1 [Compound 12]	pIC50	> 6.00
O=C(OCc1cccc(Cl)c1)N1CCN(C2CCN(C(=O)c3ccc4[nH]nnc4c3)CC2)CC1 [Compound 41]	pIC50	> 6.00
O=C(OCc1ccc(C(F)(F)F)cc1)N1CCN(C2CCN(C(=O)c3ccc4[nH]c(=S)[nH]c4c3)CC2)CC1 [Compound 127]	pIC50	> 5.00
O=C(CN1CCC(N2CCN(C(=O)c3ccc4[nH]nnc4c3)CC2)CC1)Nc1cc(C(F)(F)F)cc(C(F)(F)F)c1 [Compound 180]	pIC50	> 5.00

Challenge: Look at this compound and give its reported pIC50. N[C@@H](Cc1c[nH]cn1)C(=O)N1CCN(C2CCN(C(=O)OCc3ccc(C(F)(F)F)cc3)CC2)CC1 [Compound 89]
Response given: > 4.52

Challenge: Entry O=C(OCc1cc(Cl)cc(Cl)c1)N1CCN(C2CCN(C(=O)c3ccc4[nH]nnc4c3)CC2)CC1 [Compound 19] has what pIC50?
Response given: > 6.00

Challenge: Requested field: pIC50. Item: COc1cc(COC(=O)N2CCN(C3CCN(C(=O)c4ccc5[nH]nnc5c4)CC3)CC2)cc(OC)c1OC [Compound 121]
Response given: > 4.52

Challenge: Could you tell me which pIC50 is on file for CC(OC(=O)N1CCN(C2CCN(C(=O)c3ccc4[nH]nnc4c3)CC2)CC1)c1ccc(C(F)(F)F)cc1 (stereo not drawn) [Compound 132] ?
Response given: > 5.00

Challenge: pIC50 for CS(=O)(=O)Nc1ccc(C(=O)N2CCN(C3CCN(C(=O)CCc4ccc(C(F)(F)F)cc4)CC3)CC2)cc1 [Compound 59] ?
Response given: > 5.00

Challenge: Any idea what its pIC50 is? The compound is O=C(Nc1ccc2[nH]c(=O)oc2c1)c1cncc(N2CCN(C(=O)OCc3ccc(Cl)cc3)CC2)c1 [Compound 5]
Response given: > 5.00

Challenge: Can you share its pIC50? I mean this compound: O=C(OCc1cccc(C(F)(F)F)c1)N1CCN(C2CCN(C(=O)c3ccc4[nH]nnc4c3)CC2)CC1 [Compound 115]
Response given: > 6.00

###

- STUDY SYSTEM: Recombinant autotaxin (Homo sapiens, UniProt Q13822)
- ASSAY NOTES: Autotaxin assay (Amplex Red, LPC substrate)
- STUDY CONDITIONS: recombinant autotaxin, LPC substrate, Amplex Red detection; values given as upper bounds
- Method: Autotaxin activity is measured indirectly by means of Amplex Red Reagent. In this course, Amplex Red is measured as fluorogenic indicator for generated H2O2. […] The generated fluorescence is measured in a reaction-dependent kinetic mode in order to enable subtraction of fluorescence signals of possible other fluorescent compounds that are not part of the reaction from total measured fluorescence. […] IC50 values were calculated on normalized data. […]
QUANTITY: IC50

As a guide, the following entries are already answered.
MOLECULE	QUANTITY	RESULT
O=C(CCc1cc(F)c(F)c(Cl)c1)N1CCN(C2CCN(C(=O)c3ccc4[nH]nnc4c3)CC2)CC1	IC50	< 10 µM
O=C(Nc1ccc(-n2cncn2)cc1)C1CC(=O)N(C2CCN(C(=O)OCc3cc(Cl)cc(Cl)c3)CC2)C1 (stereo not shown)	IC50	< 10 µM
O=C(NC1CCN(C2CCN(C(=O)OCc3cc(Cl)cc(Cl)c3)CC2)C1)c1ccc2[nH]nnc2c1 (stereo not shown)	IC50	< 1 µM

Query molecule follows.
Challenge: Find IC50 (Recombinant autotaxin (Homo sapiens, UniProt Q13822)) for the entry O=C(OCc1ccc(OC(F)(F)F)cc1)N1CCC(N2CCN(C(=O)c3ccc4[nH]nnc4c3)CC2)CC1
Response given: < 1 µM

###

// reported IC50 per item
- STUDY SYSTEM: Recombinant autotaxin (Homo sapiens)
- ASSAY NOTES: Autotaxin assay (Amplex Red, LPC substrate)
- STUDY CONDITIONS: recombinant autotaxin, LPC substrate, Amplex Red detection; values given as upper bounds

# count of solved cases: 6
MOLECULE	STUDY SYSTEM	IC50
O=C(NCCc1c[nH]cn1)C1CC(=O)N(C2CCN(C(=O)OCc3cc(Cl)cc(Cl)c3)CC2)C1 (stereo not shown) [Compound 53]	Recombinant autotaxin (Homo sapiens)	< 10 µM
O=C(OCc1ccccc1Cl)N1CCN(C2CCN(C(=O)c3ccc4[nH]nnc4c3)CC2)CC1 [Compound 39]	Recombinant autotaxin (Homo sapiens)	< 10 µM
O=C(OCc1cc(C(F)(F)F)ccc1F)N1CCC(N2CCN(C(=O)c3ccc4[nH]nnc4c3)CC2)CC1 [Compound 74]	Recombinant autotaxin (Homo sapiens)	< 10 µM
O=C(OCc1cc(Cl)c(F)c(Cl)c1)N1CCN(C2CCN(C(=O)c3ccc4[nH]nnc4c3)CC2)CC1 [Compound 97]	Recombinant autotaxin (Homo sapiens)	< 1 µM
O=C(/C=C/c1ccc(Br)cc1F)N1CCC(N2CCN(C(=O)c3ccc4[nH]nnc4c3)CC2)CC1 [Compound 83]	Recombinant autotaxin (Homo sapiens)	< 1 µM
O=C(Cc1cc(C(F)(F)F)cc(C(F)(F)F)c1)N1CCN(C2CCN(C(=O)c3ccc4[nH]c(=O)oc4c3)CC2)CC1 [Compound 142]	Recombinant autotaxin (Homo sapiens)	< 10 µM

Continue with the molecule presented below.
Challenge: Entry O=C(OCc1ccc(OC(F)F)cc1)N1CCN(C2CCN(C(=O)c3ccc4[nH]nnc4c3)CC2)CC1 [Compound 167] , system Recombinant autotaxin (Homo sapiens): what IC50 was measured?
Response given: < 1 µM
